- system: human α7 receptor (Homo sapiens, UniProt P36544)
- Sequence (P36544 23-502): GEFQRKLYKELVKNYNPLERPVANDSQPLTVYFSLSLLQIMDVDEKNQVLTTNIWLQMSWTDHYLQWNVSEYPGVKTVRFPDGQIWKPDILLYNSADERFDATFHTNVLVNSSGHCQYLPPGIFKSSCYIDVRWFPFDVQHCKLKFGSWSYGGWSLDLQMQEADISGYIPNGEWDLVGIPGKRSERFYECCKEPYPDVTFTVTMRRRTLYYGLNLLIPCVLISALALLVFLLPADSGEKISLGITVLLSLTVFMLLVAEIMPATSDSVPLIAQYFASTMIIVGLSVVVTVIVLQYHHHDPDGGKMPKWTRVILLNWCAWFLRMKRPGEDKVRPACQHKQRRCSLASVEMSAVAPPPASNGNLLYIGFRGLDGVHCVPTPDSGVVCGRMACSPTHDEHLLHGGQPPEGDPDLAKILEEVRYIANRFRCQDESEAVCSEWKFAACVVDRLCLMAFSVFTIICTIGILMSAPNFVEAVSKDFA
- assay_summary: α7 NNR flux assay (FDSS Ca assay)
- condition_summary: positive allosteric modulation; rat GH4C1 cell line stably expressing human α7; acetylcholine 20 μM; % modulation relative to PNU-120596 set to 100%
pEC50: −log10 of the molar value.
assay_metric: pEC50

1) Cc1cc(C(=O)NCc2ccc3[nH]c(C)cc3c2F)on1 [Compound 110] ... 5.19
2) Cc1cc(C(=O)NCc2ccc3[nH]c(C)cc3c2)n(C)n1 [Compound 55] ... 5.14
3) Cc1cc(C(=O)NCc2cc3cc[nH]c3c(C)c2F)on1 [Compound 105] ... 5.54
4) Cn1cc(C(=O)NCc2ccc3[nH]c(C(F)(F)F)cc3c2)cn1 [Compound 30] ... 5.24
5) Cc1cc2cc(CNC(=O)c3cnn4c3CCC4)ccc2[nH]1 [Compound 117] ... 5.15
6) O=C(NCc1ccc2c(ccn2C(F)(F)F)c1)c1cnn(CC(F)(F)F)c1 [Compound 81] ... 5.22
7) Cc1cc(C(=O)NCc2ccc3c(ccn3C(F)(F)F)c2)on1 [Compound 80] ... 5.24
8) Cc1cc2cc(CNC(=O)c3ccc(Cl)s3)ccc2[nH]1 [Compound 3] ... 6.89
9) O=C(NCc1ccc2[nH]c(C(F)F)cc2c1)c1cnn(CC(F)(F)F)c1 [Compound 91] ... 5.77
10) Cc1cc2cc(CNC(=O)c3nnc(C)o3)ccc2[nH]1 [Compound 74] ... 5.22
11) Cc1cc2cc(CNC(=O)c3cnn(CC(F)(F)F)c3)ccc2n1C(F)F [Compound 69] ... 5.38
12) Cc1cc(C(=O)N[C@@H](C)c2ccc3[nH]c(C)cc3c2)on1 [Compound 62] ... 5.04
13) Cc1noc(C(=O)NCc2ccc3[nH]c(C)cc3c2)n1 [Compound 119] ... 5.15
14) Cc1cc2cc(CNC(=O)c3cc(CCF)no3)ccc2[nH]1 [Compound 106] ... 5.77
15) Cc1cc2cc(CNC(=O)c3onc(C)c3Cl)ccc2[nH]1 [Compound 56] ... 5.37
16) Cc1cc2cc(CNC(=O)c3cc(C)oc3C)ccc2[nH]1 [Compound 7] ... 5.85
17) Cc1cc2cc(CNC(=O)c3cc(CC(F)(F)F)no3)ccc2n1C(F)(F)F [Compound 85] ... 5.11
18) Cc1cc2cc(CNC(=O)c3cc(C)n(C)n3)ccc2[nH]1 [Compound 12] ... 5.04
19) Cc1cc2cc(CNC(=O)c3cc4n(n3)CCC4)ccc2[nH]1 [Compound 118] ... 5.14
20) Cc1cc2cc(CNC(=O)c3noc(C)n3)ccc2[nH]1 [Compound 77] ... 4.98
21) Cc1cc2cc(CNC(=O)c3cc(=O)n(C)[nH]3)ccc2[nH]1 [Compound 32] ... 4.96
22) O=C(NCc1ccc2c(ccn2C(F)F)c1)c1cnn(CC(F)(F)F)c1 [Compound 68] ... 5.68
23) Cc1cc2cc(CNC(=O)c3cnn(CC(F)(F)F)c3)ccc2[nH]1 [Compound 36] ... 5.83
24) Cc1cc2cc(CNC(=O)c3oncc3C)ccc2[nH]1 [Compound 15] ... 5.02
25) Cc1cc2cc(CNC(=O)c3ccoc3)ccc2[nH]1 [Compound 11] ... 5.62
26) Cc1cc2cc(CNC(=O)c3cccs3)ccc2[nH]1 [Compound 13] ... 6.28
27) COCCn1ccc(C(=O)NCc2ccc3[nH]c(C)cc3c2)n1 [Compound 95] ... 5.11
28) COCCn1cc(C(=O)NCc2ccc3[nH]c(C)cc3c2)cn1 [Compound 100] ... 5.07
29) O=C(NCc1ccc2[nH]c(C(F)F)cc2c1)c1cc(CC(F)(F)F)no1 [Compound 93] ... 5.27
30) [2H]C([2H])([2H])c1cc2cc(CNC(=O)c3cc(C)no3)ccc2[nH]1 [Compound 73] ... 5.55
31) Cc1c(C(=O)NCc2ccc3[nH]ccc3c2)sc(=O)n1C [Compound 59] ... 5.11
32) COCc1cc(C(=O)N[C@H](C)c2ccc3[nH]c(C)cc3c2)on1 [Compound 112] ... 5.96
33) Cc1cc2cc(CNC(=O)c3cc(CC(F)(F)F)no3)ccc2[nH]1 [Compound 79] ... 6.25
34) Cc1cc(C(=O)N[C@H](C)c2ccc3[nH]c(C#N)cc3c2)on1 [Compound 121] ... 5.32
35) COCc1cc(C(=O)NCc2ccc3[nH]c(C(F)(F)F)cc3c2)on1 [Compound 114] ... 5.30
36) Cc1cc2cc(CNC(=O)c3sc(C)nc3C)ccc2[nH]1 [Compound 2] ... 5.01
37) Cc1cc(C(=O)N[C@@H](c2ccc3[nH]c(C)cc3c2)C(F)(F)F)on1 [Compound 45] ... 5.82

Ref: patent US20120252853A1
